The values you see were collected from patent US8389508B2.

- TARGET OF ASSAY: human Endothelial Differentiation Gene 1 (EDG1), S1P1 receptor (Homo sapiens)
- Construct: TEV protease site; Gal4-VP16 transcription factor; expressed in transfected cells; host or cells: EDG1-bla/U2OS (Tango GPCR-bla U2OS parental cell line)
- Sequence (P21453 whole entry, the tested form may be a part): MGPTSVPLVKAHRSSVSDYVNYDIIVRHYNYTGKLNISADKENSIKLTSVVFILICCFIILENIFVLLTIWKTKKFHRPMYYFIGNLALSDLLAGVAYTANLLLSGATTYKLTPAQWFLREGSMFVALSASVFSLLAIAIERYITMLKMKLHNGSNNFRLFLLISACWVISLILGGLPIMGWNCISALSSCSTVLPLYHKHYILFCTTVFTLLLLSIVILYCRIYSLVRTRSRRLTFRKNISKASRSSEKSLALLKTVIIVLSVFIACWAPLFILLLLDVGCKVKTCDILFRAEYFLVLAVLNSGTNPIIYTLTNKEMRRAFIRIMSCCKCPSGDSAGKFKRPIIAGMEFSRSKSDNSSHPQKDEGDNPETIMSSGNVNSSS
- METHOD SUMMARY: S1P1 Assay (Tango EDG1-bla/U2OS beta-lactamase reporter, agonist dose response)
- Type: cell-based
- ASSAY CONDITIONS: EDG1-bla/U2OS cells, blue/green emission ratio, 10 point dose response, free base or salt form; read-out: pEC50 (S1P1 assay) (converted)
Counter-ions that a name gives are not always drawn.
Recorded EC50 for the following molecules

Would you please look over these solved cases?
{"MOLECULE": "CCc1c(CCN2CC(C(=O)O)C2)cccc1-c1nnc(-c2ccc(OC(C)C)c(Cl)c2)s1 [Example 6, trifluoroacetate]", "EC50": "< 1 nM"}
{"MOLECULE": "CCc1c(CCN2CC(C(=O)O)C2)cccc1-c1cnc(-c2ccc(OC(C)C)c(C#N)c2)s1 [Example 34, trifluoroacetate]", "EC50": "< 1 nM"}
{"MOLECULE": "CCc1c(CN2CC(C(=O)O)C2)cccc1-c1nsc(-c2ccc(OC(C)C)c(C(F)(F)F)c2)n1", "EC50": "< 1 nM"}
{"MOLECULE": "COc1c(CCN2CCC(C(=O)O)CC2)cccc1-c1nsc(-c2ccc(OC(C)C)c(Cl)c2)n1 [Example 73, trifluoroacetate]", "EC50": "≤ 10 nM"}
{"MOLECULE": "CCc1c(CCN2CCCC(C(=O)O)C2)cccc1-c1cnc(-c2ccc(OC(C)C)c(C#N)c2)s1 (stereo not shown)", "EC50": "< 1 nM"}

Note: attention shifts to another entry.
// fetch human Endothelial Differentiation Gene 1 (EDG1), S1P1 receptor (Homo sapiens) EC50 for CCc1c(CCN2CCC(C(=O)O)CC2)cccc1-c1cnc(-c2ccc(OC(C)C)c(Cl)c2)s1 [Example 40, trifluoroacetate]
< 1 nM
